STUDY TARGET: cathepsin B (Sigma, C-6286) (Bos taurus)
Hi! Just check whether IC50 is below 1000 nM. Below gives yes (1), equal or above gives no (0).

Reference set (3 entries):
[[record]]
compound = "CC(C)C[C@H](NC(=O)c1cccc2ccccc12)C(=O)N[C@H]1CCOC1O (stereo partly drawn)"
study_target = "cathepsin B (Sigma, C-6286) (Bos taurus)"
group = "yes (1)"

[[record]]
compound = "CCCC[C@H](NC(=O)OCc1ccccc1)C(=O)N[C@H]1CCOC1O (stereo partly drawn)"
study_target = "cathepsin B (Sigma, C-6286) (Bos taurus)"
group = "no (0)"

[[record]]
compound = "CC(C)C[C@H](NS(=O)(=O)c1cccnc1)C(=O)N[C@H]1CCOC1O (stereo partly drawn)"
study_target = "cathepsin B (Sigma, C-6286) (Bos taurus)"
group = "yes (1)"


In the following, a different compound is considered.
Here's an entry: CC(C)C[C@H](NC(=O)OCC1CCCCC1)C(=O)N[C@H]1CCOC1O (stereo partly drawn) . Is its IC50 below 1000 nM?
no (0)

* * *

STUDY TARGET: cathepsin B (Sigma, C-6286) (Bos taurus, UniProt P07688)
The threshold is 0.5 µM. Values of IC50 beneath it are tagged true; values meeting or exceeding it are tagged false.

[[record]]
compound = "CC(C)C[C@H](NC(=O)Cc1cccc2ccccc12)C(=O)N[C@H]1CCOC1O (some centres unmarked)"
group = "false"


Regarding Cc1ccc(C(=O)N[C@@H](CC(C)C)C(=O)N[C@H]2CCOC2O)cc1 (some centres unmarked) , kindly confirm whether its IC50 is beneath 0.5 µM.
true

Please state whether IC50 is below 0.5 µM for CC(C)C[C@H](NC(=O)[C@H](CC(C)C)NS(=O)(=O)c1ccccc1)C(=O)N[C@H]1CCOC1O (some centres unmarked)
false

Lab note: confirm whether the reported IC50 for this compound is below 0.5 µM, equality not counting. compound: CC(C)C[C@H](NC(=O)COc1ccccc1)C(=O)N[C@H]1CCOC1O (some centres unmarked)
false

Does Cc1ccccc1C(=O)N[C@@H](CC(C)C)C(=O)N[C@H]1CCOC1O (some centres unmarked) have IC50 strictly under 0.5 µM?
false

For this compound, is IC50 lower than 0.5 µM? CC(C)COC(=O)N[C@@H](CC(C)C)C(=O)N[C@H]1CCOC1O (some centres unmarked)
false

Say whether its IC50 is strictly beneath 0.5 µM. Entry: CC(C)C[C@H](NC(=O)c1ccc(C(F)(F)F)cc1)C(=O)N[C@H]1CCOC1O (some centres unmarked)
true

* * *

STUDY TARGET: m-Calpain (Rattus norvegicus, UniProt Q07009)
Construct: m-Calpain was purified from brains of rats; from tissue; host or cells: rat brain
TEST DESCRIPTION: Inhibitory activity against calpain (m-Calpain purified from brains of rats)
Type: biochemical
STUDY CONDITIONS: Inhibitory activity against calpain (continuation of Table-6)
Method: m-Calpain was purified from brains of rats according to a method described in a literature (Journal of Biological Chemistry, Vol. 259, p. 3210, 1984), and the inhibitory activity was determined in a manner according to a published method (Journal of Biological Chemistry, Vol. 259, p. 12489, 1984).
Overview of recorded IC50 for various molecules
Quick note: give the figure in nM, leave out the unit.

// below: answered molecules
[[record]]
molecule = "CC(C)C[C@H](NS(=O)(=O)c1cccc([N+](=O)[O-])c1)C(=O)N[C@H]1CCOC1O (stereo partly shown)"
result_value = 950

[[record]]
molecule = "CC(C)C[C@H](NC(=O)c1ccc2ccccc2c1)C(=O)N[C@H]1CCOC1O (stereo partly shown)"
result_value = 470

[[record]]
molecule = "CCOc1ccc(C(=O)N[C@@H](CC(C)C)C(=O)N[C@H]2CCOC2O)cc1 (stereo partly shown)"
result_value = 250


Attention now shifts to the item below.
Documented IC50 of CCc1cc(C(=O)N[C@@H](CC(C)C)C(=O)N[C@H]2CCOC2O)n(C)n1 (stereo partly shown) : 1000

* * *

STUDY TARGET: m-Calpain (Rattus norvegicus, UniProt Q07009)
Construct: m-Calpain was purified from brains of rats; from tissue; host or cells: rat brain
Sequence (Q07009 20-700 limits assumed): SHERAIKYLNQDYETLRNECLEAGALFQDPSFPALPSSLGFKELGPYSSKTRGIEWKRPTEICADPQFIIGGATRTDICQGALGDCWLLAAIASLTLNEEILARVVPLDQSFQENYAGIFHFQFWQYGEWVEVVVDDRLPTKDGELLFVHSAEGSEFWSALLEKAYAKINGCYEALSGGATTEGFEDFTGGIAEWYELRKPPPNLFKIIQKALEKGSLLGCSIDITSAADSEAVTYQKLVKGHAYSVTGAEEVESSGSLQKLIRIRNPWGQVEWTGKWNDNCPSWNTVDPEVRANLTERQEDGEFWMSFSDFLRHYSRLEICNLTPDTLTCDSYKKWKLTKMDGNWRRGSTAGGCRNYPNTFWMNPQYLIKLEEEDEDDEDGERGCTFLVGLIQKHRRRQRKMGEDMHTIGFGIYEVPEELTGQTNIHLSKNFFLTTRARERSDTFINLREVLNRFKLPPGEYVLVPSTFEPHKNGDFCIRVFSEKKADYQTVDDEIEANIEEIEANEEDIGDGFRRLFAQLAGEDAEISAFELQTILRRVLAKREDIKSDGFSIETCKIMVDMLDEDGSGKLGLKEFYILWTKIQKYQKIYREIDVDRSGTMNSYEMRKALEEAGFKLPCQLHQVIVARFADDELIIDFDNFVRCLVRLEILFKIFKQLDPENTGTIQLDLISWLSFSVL
Sequence (Q64537 1-270 partner): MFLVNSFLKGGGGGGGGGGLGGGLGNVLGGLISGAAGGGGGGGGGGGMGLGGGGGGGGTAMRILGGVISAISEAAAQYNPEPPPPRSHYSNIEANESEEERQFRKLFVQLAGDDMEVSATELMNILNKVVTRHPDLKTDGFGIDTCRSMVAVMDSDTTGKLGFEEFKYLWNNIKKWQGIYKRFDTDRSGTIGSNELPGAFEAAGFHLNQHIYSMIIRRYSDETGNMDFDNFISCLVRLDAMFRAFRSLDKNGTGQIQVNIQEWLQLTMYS
TEST DESCRIPTION: Inhibitory activity against calpain (m-Calpain purified from brains of rats)
Format: biochemical
STUDY CONDITIONS: Inhibitory activity against calpain (Table-6)
READOUT: IC50

Worked examples, 2 compounds total:
[[record]]
compound = "COc1ccc(C(=O)N[C@@H](CC(C)C)C(=O)N[C@H]2CCOC2O)cc1 (stereo partly drawn)"
readout = "IC50"
result_value = "670 nM"

[[record]]
compound = "CC(C)C[C@H](NC(=O)OCC1CCCO1)C(=O)N[C@H]1CCOC1O (stereo partly drawn)"
readout = "IC50"
result_value = "1100 nM"


The measured IC50 associated with Cc1ccccc1COC(=O)N[C@@H](CC(C)C)C(=O)N[C@H]1CCOC1O (stereo partly drawn) reads 440 nM

* * *

STUDY TARGET: m-Calpain (Rattus norvegicus, UniProt Q07009)
Construct: m-Calpain was purified from brains of rats; from tissue; host or cells: rat brain
TEST DESCRIPTION: Inhibitory activity against calpain (m-Calpain purified from brains of rats)
Format: biochemical
STUDY CONDITIONS: Inhibitory activity against calpain (continuation of Table-6)
READOUT: IC50
Answer with the number, then the unit.

# IC50 measured on m-Calpain (Rattus norvegicus, UniProt Q07009) for item CC(C)C[C@H](NS(=O)(=O)c1ccc(F)cc1)C(=O)N[C@H]1CCOC1O (some centres unmarked) = 600 nM

* * *

STUDY TARGET: cathepsin B (Sigma, C-6286) (Bos taurus, UniProt P07688)
READOUT: pIC50
The value called pIC50 is obtained by taking minus log10 of the concentration in mol/L.

Sample records with pIC50:
[[record]]
compound = "Cc1ccccc1COC(=O)N[C@@H](CC(C)C)C(=O)N[C@H]1CCOC1O (some centres unmarked) [Example 18]"
result_value = 6.24

[[record]]
compound = "CC(C)C[C@H](NC(=O)Oc1ccccc1)C(=O)N[C@H]1CCOC1O (some centres unmarked) [Example 28]"
result_value = 5.77

[[record]]
compound = "CC(C)C[C@H](NC(=O)OCc1ccc(F)cc1)C(=O)N[C@H]1CCOC1O (some centres unmarked) [Example 15]"
result_value = 6.15


Note to self: pIC50 of CCc1cc(C(=O)N[C@@H](CC(C)C)C(=O)N[C@H]2CCOC2O)n(C)n1 (some centres unmarked) [Example 62] with cathepsin B (Sigma, C-6286) (Bos taurus, UniProt P07688) was 6.30

Item CCC(C)[C@H](NC(=O)OCc1ccccc1)C(=O)N[C@H]1CCOC1O (some centres unmarked) [Example 7] ; assay system cathepsin B (Sigma, C-6286) (Bos taurus, UniProt P07688); pIC50 reported as 6.05
